// data source = patent US11964953B2

- assayed-target: human DGKζ (Homo sapiens (Human))
- Sequence (Q13574 other isoform, or with tags, fused parts or gaps): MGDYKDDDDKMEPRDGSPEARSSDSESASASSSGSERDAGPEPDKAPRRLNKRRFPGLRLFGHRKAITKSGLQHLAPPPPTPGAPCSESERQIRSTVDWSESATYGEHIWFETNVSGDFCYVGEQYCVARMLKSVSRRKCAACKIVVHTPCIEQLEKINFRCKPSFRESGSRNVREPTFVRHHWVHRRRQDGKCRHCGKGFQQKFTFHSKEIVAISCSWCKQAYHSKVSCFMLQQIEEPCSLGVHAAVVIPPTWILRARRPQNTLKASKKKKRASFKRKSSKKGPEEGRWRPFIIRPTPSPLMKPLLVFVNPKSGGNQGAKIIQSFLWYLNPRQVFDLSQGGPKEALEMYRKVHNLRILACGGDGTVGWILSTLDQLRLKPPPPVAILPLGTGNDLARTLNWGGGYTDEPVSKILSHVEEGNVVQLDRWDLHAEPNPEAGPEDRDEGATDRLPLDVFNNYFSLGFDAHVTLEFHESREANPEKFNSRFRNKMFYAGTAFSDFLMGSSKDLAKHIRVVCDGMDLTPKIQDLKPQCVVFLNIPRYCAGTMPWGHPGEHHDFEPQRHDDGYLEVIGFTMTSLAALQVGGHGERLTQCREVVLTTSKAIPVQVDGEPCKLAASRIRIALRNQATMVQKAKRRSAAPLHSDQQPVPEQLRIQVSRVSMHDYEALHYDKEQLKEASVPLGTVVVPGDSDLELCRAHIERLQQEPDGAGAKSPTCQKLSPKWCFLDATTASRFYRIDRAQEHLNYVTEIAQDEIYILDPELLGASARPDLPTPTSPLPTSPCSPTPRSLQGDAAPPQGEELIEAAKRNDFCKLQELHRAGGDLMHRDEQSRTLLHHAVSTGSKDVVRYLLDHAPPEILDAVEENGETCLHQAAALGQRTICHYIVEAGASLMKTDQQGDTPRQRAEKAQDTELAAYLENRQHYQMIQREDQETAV
- assay-protocol: Human DGKζ kinase activity inhibition assay (ADP-Glo)
- Type: biochemical
- stated-conditions: in vitro human DGKζ kinase activity inhibition assay; read-out: IC50
pIC50: −log10 of the molar value.
reported-metric: pIC50

Consider the following illustrative entries.
compound | assayed-target | pIC50
CC(C(N)=O)N(c1ccc(F)cc1)c1nc(N)c(C(=O)c2ccc(C(=O)NC3CCCC3)cc2)s1 (racemic) | human DGKζ (Homo sapiens (Human)) | 7.20
CC(C(N)=O)N(c1ccc(OC(F)(F)F)cc1)c1nc(N)c(C(=O)c2ccc(F)cc2)s1 (racemic) [Example 27] | human DGKζ (Homo sapiens (Human)) | 7.16
CC(C(N)=O)N(c1ccc(F)cc1)c1nc(N)c(C(=O)c2ccc3c(c2)CCC3)s1 (racemic) | human DGKζ (Homo sapiens (Human)) | 7.36
CCN(C)C(=O)COc1ccc(C(=O)c2sc(N(c3ccc(F)cc3)C(C)C(N)=O)nc2N)cc1 (racemic) | human DGKζ (Homo sapiens (Human)) | 6.48

[P] COc1ccc(N(c2nc(N)c(C(=O)c3ccccc3)s2)C(C)C(N)=O)cc1Cl (racemic)
[Q] CC(C(N)=O)N(c1ccc(F)cc1)c1nc(N)c(C(=O)c2ccc(C(F)(F)F)cc2)s1 (racemic)
[R] Cc1ccc(CNC(=O)COc2ccc(C(=O)c3sc(N(c4ccc(F)cc4)C(C)C(N)=O)nc3N)cc2)cc1 (racemic)
Qu. Order the entries by their reported pIC50, beginning at the minimum. Order the labels as requested and give them as your answer.
Ans. P, R, Q
